tested on: P. falciparum 3D7 growth, pLDH absorbance; assay: blood-stage malaria parasite growth potency – strain 3D7, dose response (AID 2305)
VALUE_KIND: pIC50
Conceptually, pIC50 converts a concentration in mol/L into minus its log10.

SMILES_DATA: c1ccc2[nH]c(-c3ccc(-c4ccc(CN5CCC(N6CCCCC6)CC5)cc4)s3)nc2c1
pIC50: 6.82
--
SMILES_DATA: O=C(/C=C/c1ccc(Cl)c(Cl)c1)N1CCC(CCN2CCc3[nH]c4ccccc4c3C2)CC1
pIC50: 6.05
--
SMILES_DATA: CCCCN1C(=O)C(c2ccccc2)(c2ccccc2)N=C1N
pIC50: 5.99
--
SMILES_DATA: Ic1cc(Nc2ncnc3ccsc23)ccc1OCc1ccccc1
pIC50: 6.11
--
SMILES_DATA: CCOC(=O)c1ccc(NC(=O)N(Cc2ccc(-c3ccc(CN4CCNCC4)cc3)cc2)C2CCN(Cc3ccccc3)CC2)cc1
pIC50: 6.10
--
SMILES_DATA: CCCCOc1c(CNCCCCCCNCc2ccc3ccccc3c2OCCCC)ccc2ccccc12
pIC50: 6.06
--
SMILES_DATA: COc1cc2nc(N3CCN(C(=O)c4c(Cl)nsc4-c4ccccc4Cl)CC3)nc(N)c2cc1OC
pIC50: 6.28
--
SMILES_DATA: CC(C)(C)c1ccc(N2C(N)=NC(N)=NC2(C)C)cc1
pIC50: 7.52
--
SMILES_DATA: Clc1ccc(-c2ncc(-c3ccncc3)[nH]2)cc1Cl
pIC50: 5.97

// below: pIC50 requested for another compound
Query: For the record CN(C)CCCOc1cccc(CCNCc2cccc(Oc3ccc(Cl)cc3)c2)c1 , what value of pIC50 is listed for P. falciparum 3D7 growth, pLDH absorbance?
Result: 6.00
